Test system: LG0703-F498-PDC complex spheroid growth
Test: Anticancer human tumor LG0703-F498-PDC patient-derived lung adenocarcinoma cell line growth inhibition [AhR]
Settings: second compound 3.16 µM; first compound 0.00316 µM; active compounds read low

{"columns": ["compound", "viability, T/C [%]"],
 "data": [
  ["Cn1ncnc1C1c2n[nH]c(=O)c3cc(F)cc(c23)NC1c1ccc(F)cc1 (stereo not drawn) + Cc1ccccc1N=Nc1ccc(NC(=O)c2ccnn2C)c(C)c1", 88],
  ["CC[C@@]1(O)C(=O)OCc2c1cc1n(c2=O)Cc2cc3c(CN(C)C)c(O)ccc3nc2-1 + Cc1ccccc1N=Nc1ccc(NC(=O)c2ccnn2C)c(C)c1", 86.1],
  ["Nc1ncn(C2CC(O)C(CO)O2)c(=O)n1 (stereo not drawn) + Cc1cncc(-c2nc(NCCc3c[nH]c4ccccc34)c3ncn(C(C)C)c3n2)c1", 56]
]}

----------
Test system: LG0703-F498-PDC complex spheroid growth
Test: Anticancer human tumor LG0703-F498-PDC cell line growth inhibition [AhR]; active means viability on the fitted dose curve at most 10% of control; inactive means the rest;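 further: luminescence taken as a proxy for viable cell amount; percent of DMSO vehicle control where 100% means growth equal to vehicle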
Conditions: second compound 0.1 µM; first compound 0.00949 µM
Possible outcomes: true (1) = active, false (0) = inactive

{"columns": ["compound", "target-or-test-system", "assigned-category"],
 "data": [
  ["CCN(c1cc(-c2ccc(CN3CCOCC3)cc2)cc(C(=O)NCc2c(C)cc(C)[nH]c2=O)c1C)C1CCOCC1 + CC(CO)NC(=O)c1cc(-c2ccc(Cl)cc2)nn(-c2cnn(C)c2)c1=O", "LG0703-F498-PDC complex spheroid growth", "false (0)"],
  ["CCN(c1cc(-c2ccc(CN3CCOCC3)cc2)cc(C(=O)NCc2c(C)cc(C)[nH]c2=O)c1C)C1CCOCC1 + Cc1ccccc1N=Nc1ccc(NC(=O)c2ccnn2C)c(C)c1", "LG0703-F498-PDC complex spheroid growth", "false (0)"],
  ["CCc1c2c(nc3ccc(O)cc13)-c1cc3c(c(=O)n1C2)COC(=O)[C@]3(O)CC + CC(CO)NC(=O)c1cc(-c2ccc(Cl)cc2)nn(-c2cnn(C)c2)c1=O", "LG0703-F498-PDC complex spheroid growth", "false (0)"],
  ["Nc1ncn(C2CC(O)C(CO)S2)c(=O)n1 (configuration not stated) + Cc1ccccc1N=Nc1ccc(NC(=O)c2ccnn2C)c(C)c1", "LG0703-F498-PDC complex spheroid growth", "false (0)"],
  ["O=C(C=Cn1cnc(-c2cc(C(F)(F)F)cc(C(F)(F)F)c2)n1)NNc1cnccn1 + CC(CO)NC(=O)c1cc(-c2ccc(Cl)cc2)nn(-c2cnn(C)c2)c1=O", "LG0703-F498-PDC complex spheroid growth", "false (0)"],
  ["CC(C)CC(NC(=O)C(Cc1ccccc1)NC(=O)c1cnccn1)B(O)O (configuration not stated) + Cc1ccccc1N=Nc1ccc(NC(=O)c2ccnn2C)c(C)c1", "LG0703-F498-PDC complex spheroid growth", "false (0)"],
  ["O=C(C=Cn1cnc(-c2cc(C(F)(F)F)cc(C(F)(F)F)c2)n1)NNc1cnccn1 + Cc1cncc(-c2nc(NCCc3c[nH]c4ccccc34)c3ncn(C(C)C)c3n2)c1", "LG0703-F498-PDC complex spheroid growth", "false (0)"],
  ["CCc1c2c(nc3ccc(O)cc13)-c1cc3c(c(=O)n1C2)COC(=O)[C@]3(O)CC + Cc1cncc(-c2nc(NCCc3c[nH]c4ccccc34)c3ncn(C(C)C)c3n2)c1", "LG0703-F498-PDC complex spheroid growth", "false (0)"],
  ["CC(C)CC(NC(=O)C(Cc1ccccc1)NC(=O)c1cnccn1)B(O)O (configuration not stated) + Cc1cncc(-c2nc(NCCc3c[nH]c4ccccc34)c3ncn(C(C)C)c3n2)c1", "LG0703-F498-PDC complex spheroid growth", "true (1)"],
  ["Nc1ncn(C2CC(O)C(CO)S2)c(=O)n1 (configuration not stated) + Cc1cncc(-c2nc(NCCc3c[nH]c4ccccc34)c3ncn(C(C)C)c3n2)c1", "LG0703-F498-PDC complex spheroid growth", "false (0)"],
  ["O=C(C=Cn1cnc(-c2cc(C(F)(F)F)cc(C(F)(F)F)c2)n1)NNc1cnccn1 + Cc1ccccc1N=Nc1ccc(NC(=O)c2ccnn2C)c(C)c1", "LG0703-F498-PDC complex spheroid growth", "false (0)"],
  ["CCN(c1cc(-c2ccc(CN3CCOCC3)cc2)cc(C(=O)NCc2c(C)cc(C)[nH]c2=O)c1C)C1CCOCC1 + Cc1cncc(-c2nc(NCCc3c[nH]c4ccccc34)c3ncn(C(C)C)c3n2)c1", "LG0703-F498-PDC complex spheroid growth", "false (0)"]
]}

These data points were gathered from PubChem BioAssay AID1919013.
